- measurement-protocol: AUC(0 to 24 hrs) in dog at 3 mg/kg, po measured upto 24 hrs by LC-MS/MS analysis
- Type: ADME, organism-based, Canis lupus familiaris
- condition-notes: in vivo

{"columns": ["compound", "AUC(0-t) at 24 h (ng·h/mL)"],
 "data": [
  ["Cc1c(Br)c(Br)c2c3c1nc(N1CCNCC1)n3CCC2 [SEL-120 FREE BASE]", 2060]
]}

----------
Each entry below carries its measured IC50, system: Dual specificity protein kinase CLK1 (Homo sapiens).
Sequence (P49759 whole entry): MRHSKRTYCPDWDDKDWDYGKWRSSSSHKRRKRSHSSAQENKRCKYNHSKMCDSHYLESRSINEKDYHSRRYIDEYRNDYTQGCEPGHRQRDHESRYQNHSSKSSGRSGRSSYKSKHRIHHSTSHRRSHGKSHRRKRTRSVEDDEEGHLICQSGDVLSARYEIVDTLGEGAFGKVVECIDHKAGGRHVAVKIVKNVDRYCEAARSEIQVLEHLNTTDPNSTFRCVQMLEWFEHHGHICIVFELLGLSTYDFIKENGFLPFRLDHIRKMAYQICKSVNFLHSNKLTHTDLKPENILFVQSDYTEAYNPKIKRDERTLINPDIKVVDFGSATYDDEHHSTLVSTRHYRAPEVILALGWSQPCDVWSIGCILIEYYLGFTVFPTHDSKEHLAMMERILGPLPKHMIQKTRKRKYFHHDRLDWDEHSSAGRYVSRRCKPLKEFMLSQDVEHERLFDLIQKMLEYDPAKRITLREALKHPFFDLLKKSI

{"columns": ["molecule", "experimental-target", "IC50 (nM)"],
 "data": [
  ["Cc1c(Br)c(Br)c2c3c1nc(N1CCNCC1)n3CCC2 [SEL-120 FREE BASE]", "Dual specificity protein kinase CLK1 (Homo sapiens)", 5.3],
  ["FC(F)c1c(Br)c(Br)cc2c1nc(N1CCNCC1)n2C1CCOCC1", "Dual specificity protein kinase CLK1 (Homo sapiens)", 8.2]
]}
